# System: MCF7
# Assay Summary: Antiproliferative activity against human MCF7 cells after 72 hrs by CellTiter-Blue assay
# Assay type: functional, cell-based
# Test Parameters: MCF7, 72 h
Metric: IC50
Please append the unit to your numeric answer.

Asked: Requested read-out: IC50. Entry: CC(C)[C@@H]1C[C@H](O)[C@H](C)C[C@H](C)C[C@H](C)C(=O)NCC(=O)N(C)[C@H](Cc2ccc(O)c(I)c2)C(=O)O1
Given back: 93 nM
